The reported measurements were obtained from ChEMBL document CHEMBL5143628.

Tested on: Coxsackievirus B1
Experiment: Antiviral activity against Human coxsackievirus B1 infected in human H1-HeLa cells assessed as reduction in virus induced cytopathic effect incubated for 2 days by MTT assay
Assay type: functional, organism-based
Conditions: Enterovirus B, 48 h
MEASURED QUANTITY: EC50

Answered examples (3):
{"COMPOUND": "CCCCn1c(=O)c2c3c(sc2n2cnnc12)CC(C(C)(C)C)CC3 (centres undefined)", "EC50": "> 22.9 µM"}
{"COMPOUND": "CCCn1c(=O)c2c3c(sc2n2cnnc12)CC(C(C)(C)C)CC3 (stereo in doubt)", "EC50": "19.8 µM"}
{"COMPOUND": "Cn1c(=O)c2c3c(sc2n2cnnc12)CC(C(C)(C)C)CC3 (centres undefined)", "EC50": "> 100 µM"}

// map CCn1c(=O)c2c3c(sc2n2cnnc12)CC(C(C)(C)C)CC3 (centres undefined) to recorded EC50 (system: Coxsackievirus B1)
> 100 µM
